Values were extracted from the supplement of paper PMC10127200.

Test system: HEPG2
assay protocol: Euclidean distance of Cell Painting phenotypic profile (signed KS, 77 features) to DMSO centroid (dimensionless distance); 5 or 10 uM (library dependent); higher = stronger phenotypic change vs DMSO (phenoactivity)
condition label: 48 h
Where a name gives a salt, the structure may show the parent alone.
Bucketed by reported Euclidean distance, buckets being low value (below 0.6), medium value (0.6 to below 2), high value (2 or more)

Solved cases below.
1) N=C(N)NC(=N)NCCc1ccccc1 [Phenformin HCl] : medium value
2) CC(=O)OCC(=O)[C@@]1(O)[C@H](C)C[C@H]2[C@@H]3CCC4=CC(=O)C=C[C@]4(C)[C@@]3(F)[C@@H](O)C[C@@]21C [Dexamethasone Acetate] : medium value
3) CCOC(=O)[C@H](CCc1ccccc1)N[C@@H](C)C(=O)N(CC(=O)O)C1Cc2ccccc2C1 [Delapril Hydrochloride] : low value
4) COC(=O)c1ccc(O)cc1 [Methyl 4-hydroxybenzoate] : medium value
5) CN1CCC[C@@H]1CCO[C@](C)(c1ccccc1)c1ccc(Cl)cc1 [Clemastine Fumarate] : high value
6) CC1=C(C(=O)O)N2C(=O)[C@@H](NC(=O)[C@H](N)c3ccc(O)cc3)[C@H]2SC1 [Cefadroxil hydrate] : medium value

For the record Cc1cn([C@H]2O[C@@H](CO)[C@H](O)[C@H]2F)c(=O)[nH]c1=O [Clevudine] , report the class its Euclidean distance corresponds to. low value

For the record C/C=C\c1ccc(O)c(OC)c1 [Isoeugenol] , report the class its Euclidean distance corresponds to. low value

For the record CC[C@H](C)[C@H](N)C1=N[C@H](C(=O)N[C@@H](CC(C)C)C(=O)N[C@H](CCC(=O)[O-])C(=O)N[C@H](C(=O)N[C@H]2CCCCNC(=O)[C@H](CC(N)=O)NC(=O)[C@@H](CC(=O)[O-])NC(=O)[C@H](Cc3cnc[nH]3)NC(=O)[C@@H](Cc3ccccc3)NC(=O)[C@H]([C@@H](C)CC)NC(=O)[C@@H](CCCN)NC2=O)[C@@H](C)CC)CS1.[Zn+2] [Bacitracin Zinc] , report the class its Euclidean distance corresponds to. medium value

For the record CCN1CCN(Cc2ccc(-c3cc4c(N[C@H](C)c5ccccc5)ncnc4[nH]3)cc2)CC1 , report the class its Euclidean distance corresponds to. medium value

For the record Cc1ncc(-c2ccnc(Nc3ccc(S(C)(=O)=O)cc3)n2)n1C(C)C , report the class its Euclidean distance corresponds to. high value

For the record N=C(N)NCCC[C@H](N)C(=O)O [L-Arginine HCl (L-Arg)] , report the class its Euclidean distance corresponds to. low value

----------
Test system: OVCAR4
assay protocol: Euclidean distance of Cell Painting phenotypic profile (signed KS, 77 features) to DMSO centroid (dimensionless distance); 5 or 10 uM (library dependent); higher = stronger phenotypic change vs DMSO (phenoactivity)
condition label: 48 h
value kind: Euclidean distance
Lab note: jot down the number only; don't add units.

I am curious: what Euclidean distance value has been reported for C[C@@H](N)c1ccc(C(=O)Nc2ccnc3[nH]ccc23)cc1 ? 2.05

I am curious: what Euclidean distance value has been reported for Nc1nc(=O)[nH]cc1F ? 0.975

I am curious: what Euclidean distance value has been reported for CC(C)C[C@@H](C=O)NC(=O)[C@H](CC(C)C)NC(=O)[C@H](CC(C)C)NC(=O)OCc1ccccc1 ? 4.07

I am curious: what Euclidean distance value has been reported for COc1ccc(-c2cc(=S)ss2)cc1 ? 1.06

----------
Test system: OVCAR4
assay protocol: Euclidean distance of Cell Painting phenotypic profile (signed KS, 77 features) to DMSO centroid (dimensionless distance); 5 or 10 uM (library dependent); higher = stronger phenotypic change vs DMSO (phenoactivity)
condition label: 48 h
Where a name gives a salt, the structure may show the parent alone.
value kind: Euclidean distance

Reference set (3 entries):
1) COc1ccc(-c2ccc3ncc4c(c3c2)n(-c2ccc(N3CCNCC3)c(C(F)(F)F)c2)c(=O)n4C)cn1 : 5.98
2) O=C(O)[C@@H](S)[C@@H](S)C(=O)O : 1.55
3) COc1cc2c(Oc3ccc4[nH]c(C)cc4c3F)ncnc2cc1OCCCN1CCCC1 [Cediranib Maleate] : 5.11

I am curious: what Euclidean distance value has been reported for COC(=O)N[C@H](C(=O)N1CCC[C@H]1c1nc(-c2ccc3c(c2)O[C@@H](c2ccccc2)n2c-3cc3cc(-c4c[nH]c([C@@H]5CCCN5C(=O)[C@@H](NC(=O)OC)C(C)C)n4)ccc32)c[nH]1)C(C)C ? 1.58

I am curious: what Euclidean distance value has been reported for CCCCOc1ccc(C(=O)Nc2ccc(F)cc2F)cc1 ? 1.5

I am curious: what Euclidean distance value has been reported for CC1(C)S[C@@H]2[C@H](NC(=O)[C@H](N)c3ccccc3)C(=O)N2[C@H]1C(=O)OCOC(=O)[C@@H]1N2C(=O)C[C@H]2S(=O)(=O)C1(C)C ? 1.28

I am curious: what Euclidean distance value has been reported for COc1ccccc1[C@H](Cn1c(=O)n(C(C)(C)C(=O)O)c(=O)c2c(C)c(-c3ncco3)sc21)OC1CCOCC1 ? 1.15

I am curious: what Euclidean distance value has been reported for CCCC(=O)Nc1ncnc2c1ncn2[C@@H]1O[C@@H]2COP(=O)(O)O[C@H]2[C@H]1OC(=O)CCC ? 1.53

I am curious: what Euclidean distance value has been reported for C[C@]1(O)C[C@@H](c2nc(-c3ccc4ccc(-c5ccccc5)nc4c3)c3c(N)nccn32)C1 ? 1.27

I am curious: what Euclidean distance value has been reported for CC(COc1ccccc1Cc1ccccc1)N1CCCCC1 (stereo not given) [Benproperine phosphate] ? 1.42

I am curious: what Euclidean distance value has been reported for Cc1c(-c2ccnn2C)cc(C(=O)NCc2ccc(S(C)(=O)=O)cn2)c(=O)n1-c1cccc(C(F)(F)F)c1 ? 0.81

I am curious: what Euclidean distance value has been reported for Cc1c(Cl)cccc1Nc1ccccc1C(=O)O ? 1.19

I am curious: what Euclidean distance value has been reported for CC1(C)CNc2cc(NC(=O)c3cccnc3NCc3ccncc3)ccc21 [Motesanib Diphosphate (AMG-706)] ? 1.37

I am curious: what Euclidean distance value has been reported for O=S(=O)(c1ccccc1)c1cnc2c(N3CCNCC3)cccc2c1 ? 0.986

I am curious: what Euclidean distance value has been reported for C[C@H]1[C@H](C)CC[C@]2(C(=O)O[C@@H]3O[C@H](CO[C@@H]4O[C@H](CO)[C@@H](O[C@@H]5O[C@@H](C)[C@H](O)[C@@H](O)[C@H]5O)[C@H](O)[C@H]4O)[C@@H](O)[C@H](O)[C@H]3O)CC[C@]3(C)C(=CC[C@@H]4[C@@]5(C)C[C@@H](O)[C@H](O)[C@@](C)(CO)[C@@H]5[C@H](O)C[C@]43C)[C@H]12 [Madecassoside] ? 1.28

I am curious: what Euclidean distance value has been reported for C=C1CC[C@@H]2[C@](C)(CO)[C@H](O)CC[C@@]2(C)[C@H]1C/C=C1\C=COC1=O [Dehydroandrographolide] ? 1.29

I am curious: what Euclidean distance value has been reported for O=C1C(O)=C([C@H]2CC[C@H](c3ccc(Cl)cc3)CC2)C(=O)c2ccccc21 ? 1.08

I am curious: what Euclidean distance value has been reported for CCN(CC)CCOC(=O)C1(C2CCCCC2)CCCCC1 [Dicyclomine HCl] ? 1.43

I am curious: what Euclidean distance value has been reported for O[C@@H]1CO[C@H]2[C@@H]1OC[C@@H]2O [Isosorbide] ? 1.64

I am curious: what Euclidean distance value has been reported for CC(=O)OC[C@H]1O[C@@H]([S-])[C@H](OC(C)=O)[C@@H](OC(C)=O)[C@@H]1OC(C)=O.CCP(CC)CC.[Au+] ? 5.08

I am curious: what Euclidean distance value has been reported for CCCCCOC(=O)Nc1nc(=O)n([C@@H]2O[C@H](C)[C@@H](O)[C@H]2O)cc1F ? 1.23

----------
System: OVCAR4
assay protocol: Euclidean distance of Cell Painting phenotypic profile (signed KS, 77 features) to DMSO centroid (dimensionless distance); 5 or 10 uM (library dependent); higher = stronger phenotypic change vs DMSO (phenoactivity)
condition label: 48 h
Label TRUE when Euclidean distance >= 1; otherwise FALSE.

# check: Euclidean distance of O=C(NC[C@H](O)CO)c1ccncc1Nc1ccc(I)cc1F is greater than or equal to 1 TRUE

# check: Euclidean distance of CC1CCc2cc(F)cc3c(=O)c(C(=O)O)cn1c23 (stereo not given) [Flumequine] is greater than or equal to 1 TRUE

# check: Euclidean distance of O=c1cc(N2CCOCC2)oc2c(-c3ccccc3)cccc12 is greater than or equal to 1 TRUE

# check: Euclidean distance of CC1CS(=O)(=O)CCN1/N=C/c1ccc([N+](=O)[O-])o1 (stereo not given) [Nifurtimox] is greater than or equal to 1 TRUE

# check: Euclidean distance of C/C=C1/[C@H](O[C@@H]2O[C@H](CO)[C@@H](O)[C@H](O)[C@H]2O)OC=C(C(=O)OC)[C@H]1CC(=O)OCCc1ccc(O)c(O)c1 [Oleuropein] is greater than or equal to 1 TRUE

# check: Euclidean distance of O=C(O)/C=C/c1ccc(Cn2ccnc2)cc1 [Ozagrel sodium] is greater than or equal to 1 FALSE

# check: Euclidean distance of CC[N+](C)(C)c1cccc(O)c1 [Edrophonium chloride] is greater than or equal to 1 FALSE

# check: Euclidean distance of COc1ccc2cc([C@H](C)C(=O)O)ccc2c1 [Naproxen] is greater than or equal to 1 TRUE

# check: Euclidean distance of COc1cc(OC)c2c(=O)[nH]c(-c3cc(C)c(OCCO)c(C)c3)nc2c1 [Apabetalone (RVX-208)] is greater than or equal to 1 FALSE

# check: Euclidean distance of COC(=O)c1cc(OC)c2c(c1-c1c(C(=O)OC)cc(OC)c3c1OCO3)OCO2 [Bifendate] is greater than or equal to 1 TRUE
